Listed compounds paired with reported %Inh
system: PAK4; details: concentration: 1 μM,replicates: in singlicate; n = 1;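 also: KINOMEscan kinase panel screen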
Express the result in % but write the number alone.

* CN1CCN(CCCNc2nccc(-c3c(-c4ccc(F)cc4)nn4cc(C(N)=O)ccc34)n2)CC1 [GW622475] | 0

Look up and report measured %Inh for this entry: OCCn1cc(-c2cnc3nnn(Cc4ccc5ncccc5c4)c3n2)cn1 11

Look up and report measured %Inh for this entry: CCNCC(Cc1ccccc1)NC(=O)c1cc(Br)c(-c2ccnc3[nH]ccc23)s1.Cl.Cl (stereo not drawn) [GSK1383280] 44

Look up and report measured %Inh for this entry: CCOC(=O)N1CCC(n2cnc(-c3ccc(F)cc3)c2-c2ccnc(N)n2)CC1 [SB-219952] 28

Look up and report measured %Inh for this entry: COC(=O)c1cccc(NC(=O)NC2CCN(c3ccnc(NCc4ccc(F)cc4)n3)CC2)c1 [GSK1379860] 0

Look up and report measured %Inh for this entry: COc1cc2ncn(-c3cc(OCC4CCCCC4)c(C(N)=O)s3)c2cc1OC [GSK204559] 0

Look up and report measured %Inh for this entry: CC(C(=O)NC1CCN(c2ccnc(Nc3ccc(F)cc3)n2)C1)c1ccc(Cl)cc1 (stereo not drawn) [GSK1379713] 0

Look up and report measured %Inh for this entry: NC(=O)c1ccc(-c2cc3ncnc(SCC(=O)O)c3s2)cc1 0

Look up and report measured %Inh for this entry: CS(=O)c1ccc(-c2coc3ccc(-c4n[nH]c(=O)o4)cc23)cc1 (stereo not drawn) 4

Look up and report measured %Inh for this entry: FC(F)(F)c1cc(Br)cc(Nc2nccc(-c3cnn4ncccc34)n2)c1 [GW810578] 22

Look up and report measured %Inh for this entry: COc1cc2c(Nc3ccc(NC(=O)c4ccccc4)cc3)ncnc2cc1OCCCN1CCOCC1 [GSK301329] 0

Look up and report measured %Inh for this entry: O=C(Nc1ccc(Oc2ccc3nc(NC(=O)C4CC4)cn3n2)c(F)c1)c1cccn(-c2ccccc2)c1=O 0

Look up and report measured %Inh for this entry: CCN1CCN(CCCC(=O)Nc2n[nH]c3nc(-c4ccc(O)cc4)c(Br)cc23)CC1 [SB-731579] 61

Look up and report measured %Inh for this entry: Cc1cccc2c(-c3ccncc3)c(-c3ccc(F)cc3)nn12.Cl [GW461487] 0

Look up and report measured %Inh for this entry: Cc1ccn2nc(-c3ccc(F)cc3)c(-c3ccncc3)c2c1.Cl [GW457859] 0

Look up and report measured %Inh for this entry: COc1cccc(C2=C(Nc3cccc(Cl)c3)C(=O)NC2=O)c1 [SB-341556] 0

Look up and report measured %Inh for this entry: COc1cc2nccc(Nc3ccc(Oc4ccccc4)cc3)c2cc1OC.Cl [GI261656] 0

Look up and report measured %Inh for this entry: N#Cc1cccc(C(=O)NC2CCN(c3ccnc(Nc4ccc(F)cc4)n3)C2)c1 (stereo not drawn) [GSK1379708] 0

---

test system: SRPK2; conditions: concentration: 1 μM,replicates: in singlicate; n = 1
Would you mind labelling by %Inh? At or over 3% is class 1, under is class 0.

Before answering, review these 5 worked examples.
- COC(=O)c1cccc(NC(=O)NC2CCN(c3ccnc(NCc4ccc(F)cc4)n3)CC2)c1: class 0
- Cn1ccc2ncnc(Oc3ccc(NC(=O)Nc4cncc(C(F)(F)F)c4)c(Cl)c3)c21: class 0
- NC(=O)Nc1sc(-c2ccc(F)cc2)cc1C(N)=O: class 1
- COc1cc(Nc2nccc(N3CCC(NC(=O)c4cccc(C#N)c4)C3)n2)cc(OC)c1OC (stereo not drawn): class 1
- Cc1ccc2c(-c3ccnc(Nc4ccc(C(F)(F)F)cc4)n3)cnn2n1: class 0

# bool: %Inh of Cc1ccc(Nc2ccnc(Nc3ccc4c(c3)CS(=O)(=O)C4)n2)cc1O.Cl >= 3% class 1

# bool: %Inh of Cn1ccc2ncnc(Oc3ccc(NC(=O)Nc4ccnc(C(F)(F)F)c4)c(Cl)c3)c21 >= 3% class 0

# bool: %Inh of CCn1c(-c2nonc2N)nc2cncc(CNC3CCNCC3)c21.Cl >= 3% class 0
